tested on: UO-31 renal; test: NCI tumour cell line growth inhibition, 48 h
recorded.metric: TGI

Qu. Fill in the blank: the reported TGI of C=CC(=O)OCCCS(=O)(=O)[O-].C=CC(=O)OCCCS(=O)(=O)[O-].NC1CCCCC1N.[Pt+4] is ____.
Ans. > 25 µM

Qu. Next molecule: O=c1oc2ccccc2c(O)c1Cc1ccccc1Cc1c(O)c2ccccc2oc1=O
Ans. > 100 µM

Qu. Next molecule: CCOC(=O)n1ccc2c(C(=O)OC)c(C(=O)OC)cc(/C(=C/C(=O)OC)C(=O)OC)c21
Ans. > 100 µM

Qu. Next molecule: C=C(C)C1Cc2cc(C(C)=O)ccc2O1 (stereo not given)
Ans. > 100 µM

Qu. Next molecule: COc1ccc(/C=C\c2cc(OC)c(OC)c(OC)c2)cc1N/C=C\C(=O)c1c[nH]c2ccccc12
Ans. > 100 µM

Qu. Next molecule: CN(C)C(=S)/N=C(\N)N(C)C
Ans. > 100 µM

Qu. Next molecule: CC(C)C(=O)/C=C/c1ccc(Cl)cc1Cl
Ans. 23.5 µM

Qu. Next molecule: COc1ccccc1NC(=O)C1=C(C)NC(C)=C(C(=O)Nc2ccccc2OC)C1c1ccc(C2C(C(=O)Nc3ccccc3OC)=C(C)NC(C)=C2C(=O)Nc2ccccc2OC)cc1
Ans. 14.9 µM

Qu. Next molecule: O=C(CC(=O)c1cccc2ccccc12)C(=O)Nc1nccs1
Ans. > 100 µM

Qu. Next molecule: Oc1c(O)c(Cc2ccccc2)c(Cc2ccccc2)c(Cc2ccccc2)c1Cc1ccccc1
Ans. > 10 µM

====

Give measured TGI for each item. Keep answers brief.
tested on: SF-539 CNS; assay: NCI tumour cell line growth inhibition, 48 h

Qu. Fill in the blank: the reported TGI of Cc1ccc([N+](=O)[O-])cc1NC(=O)/C(CC(=O)c1sc(C(N)=S)nc1C)=N\N is ____.
Ans. > 100 µM

Qu. Next compound: C#C[C@@H](OC(=O)c1ccc([N+](=O)[O-])cc1)[C@@H]1C[C@H]2O[C@@H]([C@H](C/C=C/CC)OC(=O)c3ccc([N+](=O)[O-])cc3)C[C@H]2O1
Ans. > 100 µM

Qu. Next compound: COc1ccccc1N1CCN(CC(O)Cn2c(=O)c3c(OC)nc(C)cc3c(=O)n2-c2ccccc2)CC1 (centres undefined)
Ans. > 100 µM

Qu. Next compound: CC(NC(=O)c1ccc(OP(=O)(OCc2ccc([N+](=O)[O-])o2)N(C)CCCCCl)cc1)c1ccc(OCC2CCCCC2)c(C(N)=O)c1 (centres undefined)
Ans. 10.1 µM

====

system: 786-0 renal; experiment: NCI tumour cell line growth inhibition, 48 h
recorded.metric: TGI

Qu. Fill in the blank: the reported TGI of CC(=O)Nc1ccc(S(=O)(=O)N/N=C(\C)CN2C(=O)c3ccccc3C2=O)cc1 is ____.
Ans. > 100 µM

Qu. Next compound: CCN(CC)CCC(CNc1c(C)cnc2cc(Cl)ccc12)c1ccc(Cl)c(Cl)c1 (stereo not given)
Ans. 5.74 µM

Qu. Next compound: COc1ccc(C(=O)c2cc(C)c(OC)c(C)c2)c(OC)c1OC(=O)C(Cl)Cl
Ans. > 100 µM

Qu. Next compound: NC(=S)N/N=C(/CCN1CCCC1)CC(C1=C(O)C2=CCCCC2OC1=O)c1ccccc1 (stereo not given)
Ans. > 100 µM

Qu. Next compound: CC(=O)O[C@H]1C(=O)[C@@]2(C)[C@H]([C@H](OC(=O)c3ccccc3)[C@]3(O)C[C@H](OC(=O)[C@H](O)[C@@H](NC(=O)C(C)(O)C(C)O)c4ccccc4)C(C)=C1C3(C)C)[C@]1(OC(C)=O)CO[C@@H]1C[C@@H]2O (stereo not given in full)
Ans. > 50 µM

====

tested on: NCI-H522 lung; test: NCI tumour cell line growth inhibition, 48 h
Give measured TGI for each item. Keep answers brief.

Qu. Fill in the blank: the reported TGI of COc1cc2c3c(n(CCCN=[N+]=[N-])c(=O)c2cc1OC)-c1ccc(NC(C)=O)cc1C3=O is ____.
Ans. > 50 µM

Qu. Next molecule: CCCCc1n(Cc2ccc3ccccc3n2)cc[n+]1Cc1ccc2ccccc2c1
Ans. 2.18 µM

Qu. Next molecule: O=C(c1nc2ccc(Cl)cc2[nH]c1=O)C(O)c1cccc([N+](=O)[O-])c1 (centres undefined)
Ans. > 100 µM

Qu. Next molecule: C/C(=N\NC(N)=S)C(CN1CCCCC1)C(C1=C(O)c2ccccc2OC1)c1ccccc1 (centres undefined)
Ans. > 100 µM

Qu. Next molecule: COc1ccc(/C=C2/C(=O)N(/C=C3\C(=O)Oc4ccccc4C3=O)C(=NC(C)=O)N2C)cc1OC
Ans. > 100 µM

Qu. Next molecule: NC(=S)N/N=C(/CCN1CCCC1)CC(C1=C(O)C2=CCCCC2OC1=O)c1ccccc1 (centres undefined)
Ans. > 100 µM

Qu. Next molecule: CCC12CN(C(=O)OC)C3C(Br)C1CCC(=O)C32 (centres undefined)
Ans. > 100 µM

Qu. Next molecule: Clc1ccc2c(NCCNc3nc(N4CCCCC4)nc4ccccc34)ccnc2c1
Ans. 3.85 µM

Qu. Next molecule: COc1cc(S(=O)(=O)Nc2ccc(-c3csc(/N=C\c4cccc(Oc5ccccc5)c4)n3)cc2)ccc1Cl
Ans. 66.6 µM

====

tested on: OVCAR-8 ovarian; assay: NCI tumour cell line growth inhibition, 48 h
Give measured GI50 for each item. Keep answers brief.

Qu. Value wanted: GI50 (OVCAR-8 ovarian) of entry COC(=O)[C@]12CC[C@@H](C)[C@H](C)[C@@H]1C1=CC[C@@H]3[C@@]4(C)C(C=O)=C[C@@](C)(COC(=O)c5ccco5)C4=CC[C@@]3(C)[C@]1(C)CC2
Ans. 3.67 µM

Qu. Next compound: CC(C)CCCC(C)[C@H]1CCC2C3CC=C4C[C@@H](OC(=O)CC(CC(=O)[O-])C(=O)[O-])CC[C@]4(C)C3CC[C@@]21C.N.N.[Pt+4] (stereo partly drawn)
Ans. > 100 µM

Qu. Next compound: C=C(C)[C@@H]1CC[C@]2(COC(=O)c3ccccc3C(=O)O)CC[C@]3(C)[C@H](CC[C@@H]4[C@@]5(C)CC[C@H](OC(=O)c6ccccc6C(=O)O)C(C)(C)[C@@H]5CC[C@]43C)[C@@H]12
Ans. 42.6 µM

====

tested on: NCI-H460 lung
recorded.metric: GI50

Qu. Fill in the blank: the reported GI50 of N#Cc1cc2c(=S)[nH]c(=S)[nH]c2nc1SCc1ccccc1 is ____.
Ans. 38.8 µM

Qu. Next molecule: CCN1Cc2c(/C=C/c3ccccc3)nc3ccc(OC)cc3c2N(c2cccc(Cl)c2)C1
Ans. 1.64 µM

Qu. Next molecule: COc1ncc(-c2ccc3ncnc(Nc4cccc(Cl)c4)c3c2)cc1NS(C)(=O)=O
Ans. 1.87 µM

Qu. Next molecule: COc1ccc(C#CC2=C(Br)C(=O)OC2)cc1
Ans. 10 µM

Qu. Next molecule: C=CC(=O)OCCCS(=O)(=O)[O-].C=CC(=O)OCCCS(=O)(=O)[O-].NC1CCCCC1N.[Pt+4]
Ans. > 25 µM

Qu. Next molecule: Nc1nc(N)c2cc(S(=O)(=O)c3ccccc3)ccc2n1
Ans. 0.417 µM

Qu. Next molecule: COC(=O)[C@]12CC[C@@H](C)[C@H](C)[C@@H]1C1=CC[C@@H]3[C@@]4(C)C(C=O)=C[C@@](C)(COC(=O)c5ccco5)C4=CC[C@@]3(C)[C@]1(C)CC2
Ans. 2.66 µM

Qu. Next molecule: CCSc1nc(N)c(C#N)c(-c2ccc(OC)c(OC)c2)c1C#N
Ans. 13.8 µM

Qu. Next molecule: CS(=O)(=O)Nc1cccc(-c2ccc3ncnc(Nc4cncc(Cl)c4)c3c2)c1
Ans. 3.18 µM

====

system: T-47D breast; assay: NCI tumour cell line growth inhibition, 48 h
recorded.metric: log10 of TGI (log10 of the value in µM)
Response schema: value (number) is log10 of TGI in units of µM.

Qu. Fill in the blank: the reported log10 of TGI of CCN1C(=O)N[C@H]2[C@@H]3NC(=O)c4ccc(Cl)n4[C@@H]3C[C@]21O is ____.
Ans. -0.03

Qu. Next molecule: O=C1/C(=C\c2cccc(Oc3ccccc3)c2)SC(c2ccccc2)N1Cc1ccccc1 (configuration not stated)
Ans. 1.99

Qu. Next molecule: COc1ccc(OC)c(-c2nc3sc(C)cn3c2/C=C2\C(=O)N(C)c3ccccc32)c1
Ans. 1.87

Qu. Next molecule: CN(CCc1ccccn1)c1ccc2c(c1)Cc1ccccc1-2
Ans. 1.97

Qu. Next molecule: CS(=O)(=O)Nc1ccc(NCc2cnc3ccc4[nH]cccc4c23)cc1
Ans. 1.82

Qu. Next molecule: O=C1c2ccccc2C(=O)c2c1sc1nc3ccccc3n21
Ans. 0.96

Qu. Next molecule: NC1=CC(=O)C(=O)c2ccccc21
Ans. 1.66

Qu. Next molecule: N#CC(C#N)[C@@H]1CCC=C(Sc2ccccc2)[C@H]1Sc1ccccc1
Ans. 0.89

Qu. Next molecule: O=C1c2ccccc2-c2c1c1ccc3ccccc3c1n2-c1ccccc1
Ans. 1.62

Qu. Next molecule: NC(N)=N/N=C/c1c(-c2cccs2)nc2n1CCS2
Ans. 1.57

Qu. Next molecule: CC(C)C(=O)/C=C/c1ccc(Cl)cc1Cl
Ans. 1.41
